The measured values listed here are drawn from PubChem BioAssay AID2221.

- Subject of test: Protein RecA (Mycobacterium tuberculosis (strain ATCC 25618 / H37Rv))
- Method summary: Mtb RecA intein splicing inhibitors, primary screen, biochemical, fluorescence, HTS (AID 2221)
- Conditions used: cell-free RecA intein splicing, concentration not given here
Screen size: about 290,000 compounds; about 2,200 (0.76%) were called active. Cut-off read from the data, not from the text of the source: active = inhibition above about 30%; inconclusive = no clear call, values can overlap the other calls; inactive = below that. This excerpt belongs to a sample that is enriched for actives.
Please answer using one outcome listed in Yes = active, No = inactive

Dear colleague, could you share the recorded outcome for Cc1[nH]c2ccccc2c1C(=O)CN1CCCC(C)C1 (stereo unspecified) when you have a moment? No

Dear colleague, could you share the recorded outcome for N#Cc1c(N)n(CCOC(=O)c2ccc(Cl)cc2)c2nc3ccccc3nc12 when you have a moment? Yes

Dear colleague, could you share the recorded outcome for O=S(=O)(O)Oc1c[nH]c2ccccc12 when you have a moment? Yes

Dear colleague, could you share the recorded outcome for COCC(C)OC(=O)c1c(N)n(CCCN2CCOCC2)c2nc3ccccc3nc12 (stereo unspecified) when you have a moment? No

Dear colleague, could you share the recorded outcome for O=C(Nc1ccccc1)c1ccc(NC(=O)c2cccs2)cc1 when you have a moment? No

Dear colleague, could you share the recorded outcome for O=C(Nc1n[nH]c(C(F)(F)F)n1)c1cccs1 when you have a moment? Yes

* * *

- Subject of test: Protein RecA (Mycobacterium tuberculosis (strain ATCC 25618 / H37Rv))
- Method summary: Mtb RecA intein splicing inhibitors, primary screen, biochemical, fluorescence, HTS (AID 2221)
- Conditions used: cell-free RecA intein splicing, concentration not given here
Among all 290,000 compounds or so, about 2,200 (0.76%) were called active. Cut-off read from the data, not from the text of the source: active = inhibition above about 30%; inconclusive = no clear call, values can overlap the other calls; inactive = below that. This excerpt belongs to a sample that is enriched for actives.
Please answer using one outcome listed in active, inactive

Dear colleague, could you share the recorded outcome for CCCc1[nH]nc2c1C(c1ccc(OC(=O)c3ccco3)cc1)C(C#N)=C(N)O2 (configuration not stated) when you have a moment? active

Dear colleague, could you share the recorded outcome for CSc1nnc(NC(=O)c2nc(S(=O)(=O)Cc3ccc(C)cc3)ncc2Cl)s1 when you have a moment? active

Dear colleague, could you share the recorded outcome for CCOc1c(OC)cc(C2C(C#N)=C(N)Oc3n[nH]c(-c4ccncc4)c32)cc1OC (configuration not stated) when you have a moment? inactive

Dear colleague, could you share the recorded outcome for CCCNC(=O)OC[C@H]1O[C@H](CCO/N=C/[C@@H](NS(=O)(=O)c2ccc(C)cc2)[C@H](C)/C=C/CC(=O)OC)C=C[C@@H]1Oc1ccc(OC)cc1 when you have a moment? inactive

Dear colleague, could you share the recorded outcome for O=C(CSc1nc2[nH]ncc2c(=O)[nH]1)Nc1ccc(F)cc1 when you have a moment? inactive

Dear colleague, could you share the recorded outcome for CC1=NNC(=O)C1CCC(=O)N/N=C\c1ccc(Cl)c(Cl)c1 (configuration not stated) when you have a moment? inactive

Dear colleague, could you share the recorded outcome for CCCc1[nH]nc2c1C(c1ccc(Br)s1)C(C#N)=C(N)O2 (configuration not stated) when you have a moment? active

Dear colleague, could you share the recorded outcome for COc1ccccc1CC(=O)NCCc1c[nH]c2ccccc12 when you have a moment? inactive

Dear colleague, could you share the recorded outcome for Cc1ccc(CS(=O)(=O)c2ncc(Cl)c(C(=O)Nc3nnc(C)s3)n2)cc1 when you have a moment? active

Dear colleague, could you share the recorded outcome for COCc1[nH]nc2c1C(C1C=CCCC1)C(C#N)=C(N)O2 (configuration not stated) when you have a moment? inactive

Dear colleague, could you share the recorded outcome for O=C(CN(C(=O)c1csnn1)c1cccc(Cl)c1)NC1CCCC1 when you have a moment? inactive

Dear colleague, could you share the recorded outcome for Cc1nnc(NC(=O)CCCOc2ccccc2)s1 when you have a moment? inactive

Dear colleague, could you share the recorded outcome for O=C(c1cccc(N2CCCC2=O)c1)N1CCOCC1 when you have a moment? inactive

Dear colleague, could you share the recorded outcome for CSc1ncc(Cl)c(C(=O)Nc2cc(C)ccc2C)n1 when you have a moment? inactive

Dear colleague, could you share the recorded outcome for O=C(Cc1c[nH]c2ccccc12)OCCOC(=O)Cc1c[nH]c2ccccc12 when you have a moment? inactive

Dear colleague, could you share the recorded outcome for COc1ccc(-c2[nH]nc3c2C(c2ccncc2)C(C#N)=C(N)O3)cc1 (configuration not stated) when you have a moment? active

Dear colleague, could you share the recorded outcome for CCc1ccc(C2C(C#N)=C(N)Oc3n[nH]c(CC(=O)OC)c32)cc1 (configuration not stated) when you have a moment? active

Dear colleague, could you share the recorded outcome for CC1=NNC(=O)C1Cc1c(Cl)cccc1Cl (configuration not stated) when you have a moment? active

Dear colleague, could you share the recorded outcome for NC1=NN(c2cccc(C(=O)O)c2)C(=O)C1 when you have a moment? active

Dear colleague, could you share the recorded outcome for CC1=NNC(=O)C1CCC(=O)N/N=C\c1cccc(Cl)c1 (configuration not stated) when you have a moment? inactive

Dear colleague, could you share the recorded outcome for COc1cc(C2C(C#N)=C(N)Oc3n[nH]c(-c4ccccn4)c32)cc(OC)c1OC (configuration not stated) when you have a moment? inactive

Dear colleague, could you share the recorded outcome for CCC1=C(C(=O)OC)C(c2cc(OC)ccc2OC)C(C#N)=C(N)O1 (configuration not stated) when you have a moment? inactive
